- study.system: N-terminal Xaa-Pro-Lys N-methyltransferase 1 (Homo sapiens)
- measurement.description: Primary qHTS for Inhibitors of N-terminal methyltransferase 1 (NTMT1): MTaseGlo Assay; note: nearly all actives have a fitted effect of over 65% in size
- measurement.setup: NTMT1 MTase-Glo SAH luminescence, purified enzyme; series mostly up to 114 µM
Out of some 59,000 compounds screened, about 1,500 (2.5%) were called active. Another 10% or so got no clear call; they are omitted. Calls come from the whole dose curve; as a rule, active = well fitted inhibition curve with a large enough effect; inconclusive = small, poorly fitted or top-dose-only effect; inactive = flat fitted curve, though single readings scatter. For the sample, actives were picked, then their nearest neighbours and some compounds at random.
Please reply with one of these outcomes: active, inactive

Example cases with answers are listed next.
compound: COc1ccc(C(CC(=O)N2CC(C)CC(C)C2)c2c(O)cc(OC)cc2OC)cc1 (stereo not given)
class.assignment: inactive
--
compound: CCc1ccc(CNC(=O)c2cc3c(=O)n(CC)c4ccccc4c3s2)cc1
class.assignment: inactive
--
compound: Cc1cccc2nc(-c3ccc(Cl)s3)c(Nc3ccc4c(c3)OCCO4)n12
class.assignment: active
--
compound: O=C1CC(c2c[nH]c3ccc(F)cc23)C(=O)N1 (stereo not given)
class.assignment: inactive
--
compound: O=S(=O)(NC1CCN(S(=O)(=O)c2ccc3c(c2)OCCO3)CC1)c1c(F)cccc1F
class.assignment: inactive

Input line: Could you check what this test reported for `Cc1c(Cl)cccc1NC(=O)N1CCN(C(=O)c2nsc3ccccc23)CC1` ?
Output line: inactive

Input line: Tell me the assay call for COc1ccc(C2Nc3ccccc3C(=O)N2Cc2ccccc2)cc1COc1ccc(C(N)=O)cc1 (stereo not given) please.
Output line: inactive

Input line: Status in this test for `O=C(CSc1nnc(-c2cccc([S+](=O)([O-])N3CCCC3)c2)n1-c1ccccc1)Nc1cccc(C(F)(F)F)c1` ?
Output line: inactive

Input line: # outcome recorded in this test, key = `CCN(CCCNC(=O)c1cc2c(=O)n(CC)c3ccccc3c2s1)Cc1ccccc1`
Output line: active

Input line: # fetch the recorded call for `CS(=O)(=O)c1ccc(C(=O)OCC(=O)N2CCC(c3ccccc3)CC2)cc1[N+](=O)[O-]` here
Output line: inactive

Input line: Outcome? `CCNC(=O)C#Cc1ccc2c(C(=Nc3ccc(CN(C)C)cc3)c3ccccc3)c(O)[nH]c2c1`
Output line: active
